# Lookup of reported IC50 keyed by entry
Tested system: Neurokinin NK2 (Homo sapiens, UniProt P21452)
Sequence (P21452 1-398): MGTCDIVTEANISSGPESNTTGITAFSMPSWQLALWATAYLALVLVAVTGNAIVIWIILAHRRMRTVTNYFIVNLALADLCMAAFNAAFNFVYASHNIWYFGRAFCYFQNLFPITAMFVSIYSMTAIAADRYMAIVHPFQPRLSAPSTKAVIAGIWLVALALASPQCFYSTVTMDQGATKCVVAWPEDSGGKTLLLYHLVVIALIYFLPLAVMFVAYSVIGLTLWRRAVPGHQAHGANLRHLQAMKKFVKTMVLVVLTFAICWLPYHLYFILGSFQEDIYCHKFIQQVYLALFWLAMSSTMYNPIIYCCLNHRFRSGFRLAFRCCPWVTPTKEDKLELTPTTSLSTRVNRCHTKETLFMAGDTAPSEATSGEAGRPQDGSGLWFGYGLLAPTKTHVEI

Query string: Which IC50 reading was recorded for the molecule CCCCC/C=C\CC1OC1C/C=C\C/C=C\CCCC(=O)OC (stereo not shown) ?
Result string: > 100 µM

Further cases:
Query string: Quick one: IC50 for CCCCC/C=C\C/C=C\CC1OC1C/C=C\CCCC(=O)OC (stereo not shown) ?
Result string: > 100 µM

Query string: What would you report for CCCCC/C=C\C/C=C\C/C=C\CC1OC1CCCC(=O)OC (stereo not shown) ?
Result string: 36 µM

Query string: Another molecule to look at: CCCCCC1OC1C/C=C\C/C=C\C/C=C\CCCC(=O)OC (stereo not shown)
Result string: > 100 µM
